Test system: Escherichia coli TOP10;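 also: peptides expressed intracellularly from a pBAD plasmid library in pooled LB shake-flask culture, induced with 0.3% L-arabinose, DNA abundance read by NGS, three biological replicates, DESeq2 with apeglm shrinkage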
test protocol: shrunken log2 fold change of peptide-encoding DNA abundance (4.5 h post-induction vs induction); higher = less antimicrobial activity (less host growth inhibition)
protocol conditions: time post-induction: 4.5 h; library: site-saturation at positions 5, 18, 19, 20
parameter: shrunken log2 fold change
Output spec: single numeric token, no unit.

Record excerpt, results attached:
> print(dat)
                  sequence                  parameter  readout.number
1  RRIRVRPPRLPRPRPRPSQYPRP  shrunken log2 fold change          -0.389
2  RRIRHRPPRLPRPRPRPQCAPRP  shrunken log2 fold change           0.191
3  RRIRMRPPRLPRPRPRPKVWPRP  shrunken log2 fold change            1.04
4  RRIRDRPPRLPRPRPRPLYNPRP  shrunken log2 fold change          -0.321
5  RRIRQRPPRLPRPRPRPFKVPRP  shrunken log2 fold change        -0.00664

Query block: Entry RRIRRRPPRLPRPRPRPFHIPRP has what shrunken log2 fold change?
Result block: -0.0758

Query block: Name the reported shrunken log2 fold change value associated with the sequence RRIRRRPPRLPRPRPRPGTPPRP
Result block: 0.435

Query block: Request the reported shrunken log2 fold change associated with RRIRFRPPRLPRPRPRPYTPPRP
Result block: -1.28
